src = patent US8063012B2

- Test system: primary cortical neuronal cultures
- ASSAY EXPLANATION: Glutamate excitotoxicity in primary cortical neuronal cultures, neuronal viability by MTS assay
- Assay type: cell-based, rat
- CONDITION INFO: 5 μM extracellular peptide; 100 μM glutamate 5 min; MTS 18 h; no insult = 100%
No end group written: not given here.
Decide using neuronal viability following glutamate excitotoxicity alone. Strictly below 40%: Condition met. Equal to or above 40%: Condition not met.

Req: Answer whether the sequence GRKKRRQRRRGAYQSIRSGGIESSSKRER [PYC35L-TAT] has neuronal viability following glutamate excitotoxicity strictly less than 40%
Resp: Condition not met

###

- Tested on: primary cortical neuronal cultures
- ASSAY EXPLANATION: Glutamate excitotoxicity in primary cortical neuronal cultures, neuronal viability by MTS assay
- Format: cell-based, rat
- CONDITION INFO: 5 μM extracellular peptide; 100 μM glutamate 5 min; MTS 18 h; no insult = 100%
- Excerpt: Neurons were resuspended in Neurobasal (NB; Invitrogen) containing 2% B27 supplement (B27; Invitrogen). […] Eighteen hours after glutamate exposure, neuronal cultures were examined by light microscopy for qualitative assessment of neuronal damage. Neuronal viability was quantitatively measured by 3-(4,5,dimethyliazol-2-yl)-5-(3-carboxymethoxy-phenyl)-2-(4-sulfophenyl)-2H-tetrazolium salt (MTS) assay (Promega, Australia). […]
No end group written: not given here.
READOUT LABEL: neuronal viability following glutamate excitotoxicity (%)
Give the number; % is assumed, so skip it.

Before answering, review these 3 worked examples.
Req: What measured neuronal viability following glutamate excitotoxicity goes with GRKKRRQRRRGGLQGRRRQGYQSIKP [PYC36L-TAT] ?
Resp: 64

Req: What measured neuronal viability following glutamate excitotoxicity goes with GRKKRRQRRRGGLQGRRQPGQQPQGRWSGRALPAHR [PYC38/39L-TAT] ?
Resp: 69

Req: What measured neuronal viability following glutamate excitotoxicity goes with GRKKRRQRRRGVSINQEHHRLLPL [PYC41L-TAT] ?
Resp: 38

Let us move to another entry and its neuronal viability following glutamate excitotoxicity.
Req: What measured neuronal viability following glutamate excitotoxicity goes with GRKKRRQRRRGLINQSYAYPYIY [PYC19L-TAT] ?
Resp: 32
